Experiment: AlphaLISA signal interference compounds, dose response, artefact control, biochemical, TruHit kit (AID 1259339)
Settings: TruHit alphaLISA kit signal interference counterscreen; series mostly up to 80 µM
Activity calls are given as the source filed them.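 How the source made its calls: active means fitted AC50 no higher than ten times the top tested dose (cut at about 90 µM in these data); inconclusive means flat curve with 30 to 70% signal loss, or bad fit; inactive means AC50 beyond ten times the top dose.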
Classes used: T = active, F = inactive

[
  {
    "compound": "Nc1c(C(=O)NCc2ccco2)c2nc3ccccc3nc2n1CCN1CCOCC1",
    "class.assignment": "T"
  },
  {
    "compound": "O=C(NCCc1ccccc1)c1cc2cccnc2n(Cc2ccccc2)c1=O",
    "class.assignment": "F"
  },
  {
    "compound": "O=C(NC1(C(F)(F)F)Oc2ccc(Cl)cc2O1)N1CCC2(CC1)OCCO2 (centres undefined)",
    "class.assignment": "F"
  },
  {
    "compound": "Cc1ccc(S(=O)(=O)Cc2ccc(C(=O)N3CCC4(CC3)OCCO4)o2)cc1",
    "class.assignment": "F"
  }
]

Each recorded value in this set is attributed to PubChem BioAssay AID1259339.
